Data credit: ChEMBL document CHEMBL2218924

molecular target: Serine/threonine-protein kinase Nek3 (Homo sapiens) (UniProt P51956); details: at 10 µM
Sequence (P51956 whole entry): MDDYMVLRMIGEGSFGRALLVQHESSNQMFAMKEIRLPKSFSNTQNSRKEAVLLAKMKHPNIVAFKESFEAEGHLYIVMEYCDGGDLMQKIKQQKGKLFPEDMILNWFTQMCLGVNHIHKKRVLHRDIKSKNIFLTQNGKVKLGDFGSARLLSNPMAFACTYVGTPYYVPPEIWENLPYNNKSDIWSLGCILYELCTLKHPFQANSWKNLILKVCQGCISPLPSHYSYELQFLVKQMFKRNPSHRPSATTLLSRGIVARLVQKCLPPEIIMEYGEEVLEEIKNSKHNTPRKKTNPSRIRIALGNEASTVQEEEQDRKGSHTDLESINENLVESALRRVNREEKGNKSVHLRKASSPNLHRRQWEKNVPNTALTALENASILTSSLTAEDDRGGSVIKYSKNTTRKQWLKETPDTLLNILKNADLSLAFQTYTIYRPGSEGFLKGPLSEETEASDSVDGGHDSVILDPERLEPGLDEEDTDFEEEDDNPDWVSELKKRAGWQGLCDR
Description: Millipore: Percentage of residual kinase activity of NEK3 at 10uM relative to control. Control inhibitor: Phosphoric acid* at 0.3uM. Buffer: 8 mM MOPS pH 7.0, 0.2 mM EDTA
Think of 80% as a floor: if residual activity stands on it or above, it is condition met; beneath it, condition not met.

Below are worked cases with known answers.
# smilesStr, answerLabel
measured = [
    ("Nc1n[nH]c2nnc(-c3c(-c4ccccc4)nn4ccccc34)cc12", "condition met"),
    ("CC(=O)O/N=C1\\C(=C2\\C(=O)Nc3cc(Br)ccc32)Nc2ccccc21", "condition met"),
    ("CC(C)n1cnc2/c(=N/c3cccc(Cl)c3)nc(NCCO)[nH]c21", "condition not met"),
    ("CCOc1cc2ncnc(Nc3cccc(Br)c3)c2cc1OCC", "condition met"),
    ("CNc1cc2c(Nc3cccc(Br)c3)ncnc2cn1", "condition not met"),
]

Quick check, residual activity >= 80%? "CO[C@H]1C[C@@H]2CC[C@@H](C)[C@@](O)(O2)C(=O)C(=O)N2CCCC[C@H]2C(=O)O[C@H]([C@H](C)C[C@@H]2CC[C@@H](O)[C@H](OC)C2)CC(=O)[C@H](C)/C=C(\C)[C@@H](O)[C@@H](OC)C(=O)[C@H](C)C[C@H](C)/C=C/C=C/C=C/1C" condition not met

Quick check, residual activity >= 80%? "O=c1c2ccccc2[nH]c(=S)n1CCN1CCC(=C(c2ccc(F)cc2)c2ccc(F)cc2)CC1" condition not met

Quick check, residual activity >= 80%? "N#Cc1cnc2cnc(NCc3cccnc3)cc2c1Nc1ccc(F)c(Cl)c1" condition not met

Quick check, residual activity >= 80%? "COc1ccc(C(=O)Nc2sc3c(c2C(N)=O)CCCC3)cc1OC" condition not met

Quick check, residual activity >= 80%? "COc1ccc(S(=O)(=O)N(CCO)c2ccccc2CN(C)C/C=C/c2ccc(Cl)cc2)cc1" condition met

Quick check, residual activity >= 80%? "Nc1nc(Nc2ccc(S(N)(=O)=O)cc2)nn1C(=S)Nc1c(F)cccc1F" condition not met

Quick check, residual activity >= 80%? "O=C1Nc2cc(Br)ccc2/C1=C1/Nc2ccccc2/C1=N\O" condition not met

Quick check, residual activity >= 80%? "COc1cccc(-c2cc(=O)c3ccccc3o2)c1N" condition met

Quick check, residual activity >= 80%? "NC(=O)c1ccc2[nH]c(-c3ccc(Oc4ccc(Cl)cc4)cc3)nc2c1" condition met

Quick check, residual activity >= 80%? "Cc1cc2ncc(-c3ccccc3)nc2cc1C" condition met
